Test: Inhibition of platelet aggregation in human platelet rich plasma (PRP)
endpoint label: IC50 (µM)
Supply the numeric figure in µM, leaving out any unit text.

The reported value for Cc1cc(C)c(S(=O)(=O)N[C@@H](CNC(=O)C2=NOC(CCCc3cccc(N)n3)C2)C(=O)O)c(C)c1 (some centres not stated) in terms of IC50 is 78

The reported value for Cc1cc(C)c(S(=O)(=O)N[C@@H](CNC(=O)C2=NOC(CCCCNc3ccccn3)C2)C(=O)O)c(C)c1 (some centres not stated) in terms of IC50 is 16

The reported value for Cc1cc(C)c(S(=O)(=O)N[C@@H](CNC(=O)C2=NOC(CCCCNc3ncc[nH]3)C2)C(=O)O)c(C)c1 (some centres not stated) in terms of IC50 is 0.85

The reported value for Cc1cc(C)c(S(=O)(=O)N[C@@H](CNC(=O)C2=NOC(CCCCNC3=NCCN3)C2)C(=O)O)c(C)c1 (some centres not stated) in terms of IC50 is 0.69

The reported value for O=C(NC[C@H](NS(=O)(=O)c1cccc2ccccc12)C(=O)O)C1=NOC(CCCCNc2ncc[nH]2)C1 (some centres not stated) in terms of IC50 is 7.8

The reported value for N[C@@H](CNC(=O)C1=NOC(CCCCNc2ncc[nH]2)C1)C(=O)O (some centres not stated) in terms of IC50 is 84

Data credit: BindingDB's records for doi:10.1021/jm9900321
